# PROTOCOL DESCRIPTION: yeast display, Sf9 membrane polyspecificity reagent, FACS + sequencing; frameworks hold sequencing errors
MEASURE: polyreactivity (PSR sort gate)

{"columns": ["QUERY SEQUENCE", "RESULT VALUE"],
 "data": [
  ["QVQLVESGGGLVQAGGSLRLSCASSGRIFRYYAMGWYRQAPGKERELVAAINWSGGSTYYADSVKGRFTISRDNAKNTVYLQMNSLNPEDTAVYYCYRRAYIRYDSSSLDYWGQGTQVTVSS", "low polyreactivity"],
  ["QVQLVESGGGLVQAGGSLRLSCAASGRIFHGYAMGWYRQAPGKERELVATIRSGGGTYYADSVKGRFTISRDNAKNSVYLQINSLKPDDTAVYYCNAQSSYSYFSGYDYWGQGSQVTVSS", "low polyreactivity"]
]}
